systemTested: T1, human DLL3 (Homo sapiens, UniProt Q9NYJ7)
T1 construct: purchased ACRO DLL3-H52H4
T1 sequence (Q9NYJ7 27-492 limits assumed): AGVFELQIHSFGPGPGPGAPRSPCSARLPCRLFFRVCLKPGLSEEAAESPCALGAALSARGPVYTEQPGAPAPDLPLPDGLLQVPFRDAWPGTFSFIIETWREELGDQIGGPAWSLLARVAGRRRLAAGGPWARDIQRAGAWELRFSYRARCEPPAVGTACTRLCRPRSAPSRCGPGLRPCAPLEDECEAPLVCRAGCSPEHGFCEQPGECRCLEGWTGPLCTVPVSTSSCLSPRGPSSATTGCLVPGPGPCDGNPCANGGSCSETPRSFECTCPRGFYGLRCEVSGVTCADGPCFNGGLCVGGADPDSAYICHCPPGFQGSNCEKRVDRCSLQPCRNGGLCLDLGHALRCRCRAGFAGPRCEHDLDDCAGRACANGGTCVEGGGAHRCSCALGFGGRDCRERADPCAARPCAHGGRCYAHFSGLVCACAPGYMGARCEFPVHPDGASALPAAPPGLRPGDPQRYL
protocolSummary: Biacore antibody affinity assay, human DLL3
Format: binding
Listed here are molecules together with their documented ka.

molecule: hAb6L4H13: humanized antibody of mAb6: hAb6VH13 (SEQ ID NO: 44) + hAb6VL4 (SEQ ID NO: 48), constant regions SEQ ID NO: 28/29 (antibody, V domains shown, constant regions SEQ ID 28/29; hAb6VH13; hAb6 VL4) VH: EVQLVQSGSELKKPGASVKVSCKASGYTFTDYYMNWVKQAPGQGLEWMGIINPYSGVTIYNHKFKGRFALSVDKSSNTAYLQISSLKAEDTAVYYCARQDSLLDYAMDYWGQGTTVTVSS VL: DIQMTQSPSSLSASVGDRVTITCHASQGISGNMGWLQQKPGKAPKGLIYHGANLEDGVPSRFSGSGSGADYTLTISSLQPEDFADYYCVQYAQFPYTFGGGTKVEIK
unitsSymbol: M⁻¹ s⁻¹
ka: 2.16e+06

molecule: hAb6L3H2: humanized antibody of mAb6: hAb6VH2 (SEQ ID NO: 33) + hAb6VL3 (SEQ ID NO: 47), constant regions SEQ ID NO: 28/29 (antibody, V domains shown, constant regions SEQ ID 28/29; hAb6 VH2; hAb6 VL3) VH: EVQLVQSGAEVKKPGASVKVSCKASGYTFTDYYMNWVRQAPGQRLEWMGIINPYSGVTIYNHKFKGRVTLTVDKSANTAYMELSSLRSEDTAVYYCARQDSLLDYAMDYWGQGTTVTVSS VL: DIQMTQSPSSLSASVGDRVTITCHASQGISGNMGWLQQKPGKSFKGLIYHGANLEDGVPSRFSGSGSGADYTLTISSLQPEDFATYYCVQYAQFPYTFGGGTKVEIK
unitsSymbol: M⁻¹ s⁻¹
ka: 716000

molecule: hAb6L4H4: humanized antibody of mAb6: hAb6VH4 (SEQ ID NO: 35) + hAb6VL4 (SEQ ID NO: 48), constant regions SEQ ID NO: 28/29 (antibody, V domains shown, constant regions SEQ ID 28/29; hAb6 VH4; hAb6 VL4) VH: EVQLVQSGAEVKKPGASVKVSCKASGYTFTDYYMNWVRQAPGKRLEWMGIINPYSGVTIYNHKFKGRVTLTVDKSANTAYMELSSLRSEDTAVYYCARQDSLLDYAMDYWGQGTTVTVSS VL: DIQMTQSPSSLSASVGDRVTITCHASQGISGNMGWLQQKPGKAPKGLIYHGANLEDGVPSRFSGSGSGADYTLTISSLQPEDFADYYCVQYAQFPYTFGGGTKVEIK
unitsSymbol: M⁻¹ s⁻¹
ka: 743000

molecule: hAb6L4H6: humanized antibody of mAb6: hAb6VH6 (SEQ ID NO: 37) + hAb6VL4 (SEQ ID NO: 48), constant regions SEQ ID NO: 28/29 (antibody, V domains shown, constant regions SEQ ID 28/29; hAb6 VH6; hAb6 VL4) VH: EVQLVQSGSELKKPGASVKVSCKASGYTFTDYYMNWVRQAPGQGLEWMGIINPYSGVTIYNHKFKGRFVLSVDKSSNTAYLQISSLKAEDTAVYYCARQDSLLDYAMDYWGQGTTVTVSS VL: DIQMTQSPSSLSASVGDRVTITCHASQGISGNMGWLQQKPGKAPKGLIYHGANLEDGVPSRFSGSGSGADYTLTISSLQPEDFADYYCVQYAQFPYTFGGGTKVEIK
unitsSymbol: M⁻¹ s⁻¹
ka: 1.91e+06
